Please respond with reported T. b. rhodesiense SI for every item in the list.
# System: T. b. rhodesiense STIB 900
# ASSAY_DETAILS: IC50 determination against T. b. rhodesiense, serial dilutions, Alamar blue
# Type: cell-based, Trypanosoma brucei rhodesiense
# MEASUREMENT_CONDITIONS: Table 4, pure compounds
Answers are plain numbers.

COMPOUND: COC(=O)c1cc(O)c(O)c(O)c1 [Methyl gallate (2), methyl gallate]
T. b. rhodesiense SI: 15

Below are 4 compounds. Give each one its T. b. rhodesiense SI.
1. CCOC(=O)c1cc(O)c(O)c(O)c1 [Ethyl gallate (4), ethyl gallate]
2. O=C(O)c1cc(O)c(O)c(O)c1 [Gallic acid (1), gallic acid]
3. CC/C=C\C/C=C\C/C=C\CCCCCCCc1cc(O)cc(O)c1 [Resorcinol-alkyl (8)]
4. O=C(OC[C@@H]1O[C@H](OC(=O)c2cc(O)c(O)c(O)c2)[C@@H](OC(=O)c2cc(O)c(O)c(O)c2)[C@H](OC(=O)c2cc(O)c(O)c(O)c2)[C@H]1OC(=O)c1cc(O)c(O)c(O)c1)c1cc(O)c(O)c(O)c1 [Pentagalloyl-β-glucopyranoside (5), 1,2,3,4,6 pentagalloyl-β-glucopyranoside]

Return:
[25, 34, 2.5, 1.0]

Below are 2 compounds. Give each one its T. b. rhodesiense SI.
1. O=c1cc(-c2ccc(O)c(O)c2)oc2c(O)c(O[C@@H]3O[C@H](CO)[C@@H](O)[C@H](O)[C@H]3O)cc(O)c12 [Hypolaetin-7-O-glucoside (7), hypolaetin-7-O-glucoside]
2. O=c1c(O)c(-c2ccc(O)c(O)c2)oc2c(O)c(O[C@@H]3O[C@H](CO)[C@@H](O)[C@H](O)[C@H]3O)cc(O)c12 [Gossypetin-7-O-β-glucopyranoside (6), gossypetin-7-O-β-glucopyranoside]

Return:
3.2
1.6
